assay: Plasma concentration in Wistar Han rat at 1 mg/kg, iv measured 1 hr post compound administration; type: ADME, organism-based
readout kind: concentration at 1 h (ng/mL)
Quick reminder: number only, in ng/mL, skip the unit.

# count of solved cases: 5
smiles structure | readout kind | observed value
CC(C)NC(=O)N1CCN(C(=O)Cc2ccc(Cl)c(Cl)c2)[C@@H]2[C@@H](N3CCCC3)CCC[C@@H]21.Cl | concentration at 1 h | 130
COC(=O)N1CCN(C(=O)Cc2ccc(Cl)c(Cl)c2)[C@@H]2[C@@H](N3CC[C@H](O)C3)CCC[C@@H]21.Cl | concentration at 1 h | 128
COC(=O)N1CCN(C(=O)Cc2ccc(Cl)c(Cl)c2)[C@@H]2[C@@H](N3CC[C@@H](O)C3)CCC[C@@H]21.Cl | concentration at 1 h | 115
COC(=O)N1CCN(C(=O)Cc2ccc(Cl)c(Cl)c2)[C@@H]2[C@@H](N(C)C)CCC[C@@H]21.Cl | concentration at 1 h | 186
CS(=O)(=O)N1CCN(C(=O)Cc2ccc(Cl)c(Cl)c2)[C@@H]2[C@@H](N3CCCC3)CCC[C@@H]21.Cl | concentration at 1 h | 124

[ask] Entry `COC(=O)CN1CCN(C(=O)Cc2ccc(Cl)c(Cl)c2)[C@@H]2[C@@H](N3CCCC3)CCC[C@@H]21.Cl` : reported concentration at 1 h = ?
[reply] 199
